system: OVCAR-8 complex spheroid, growth inhibition; assay: Anticancer human tumor OVCAR-8 cell line growth inhibition [Asc]; details: second compound 0.316 µM; first compound 1 µM; hits give low values;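 further: spheroids exposed to agents for 7 days before readout; percent viability relative to DMSO vehicle wells taken as 100%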
compounds and their reported viability, T/C

>  <compound>
C=CC(=O)N1CCN(c2nc(=O)n(-c3c(C)ccnc3C(C)C)c3nc(-c4c(O)cccc4F)c(F)cc23)C(C)C1 (stereo not drawn) + Cc1c(S(C)(=O)=O)c(-c2cc(F)cc(N3CCN(c4ccc(NS(=O)(=O)c5ccc(NC(CCN6CCC(C(=O)OCCCP(=O)(O)O)CC6)CSc6ccccc6)c(S(=O)(=O)C(F)(F)F)c5)cc4)CC3)c2)c(-c2ccc(Cl)cc2)n1C(C)C

>  <viability, T/C [%]>
93.6

$$$$
>  <compound>
COc1c(OCCCN2CCOCC2)ccc2c3n(c(=NC(=O)c4cnc(N)nc4)nc12)CCN3 + Cc1c(S(C)(=O)=O)c(-c2cc(F)cc(N3CCN(c4ccc(NS(=O)(=O)c5ccc(NC(CCN6CCC(C(=O)OCCCP(=O)(O)O)CC6)CSc6ccccc6)c(S(=O)(=O)C(F)(F)F)c5)cc4)CC3)c2)c(-c2ccc(Cl)cc2)n1C(C)C

>  <viability, T/C [%]>
85.8

$$$$
>  <compound>
CNC(C)C(=O)NC1CN(S(=O)(=O)c2cccc(S(=O)(=O)N3CCC4CCC(C(=O)NC(c5ccccc5)c5ccccc5)N4C(=O)C(NC(=O)C(C)NC)C3)c2)CCC2CCC(C(=O)NC(c3ccccc3)c3ccccc3)N2C1=O (stereo not drawn) + Cc1c(S(C)(=O)=O)c(-c2cc(F)cc(N3CCN(c4ccc(NS(=O)(=O)c5ccc(NC(CCN6CCC(C(=O)OCCCP(=O)(O)O)CC6)CSc6ccccc6)c(S(=O)(=O)C(F)(F)F)c5)cc4)CC3)c2)c(-c2ccc(Cl)cc2)n1C(C)C

>  <viability, T/C [%]>
53.1

$$$$
